Measured values drawn from patent US20240262808A1 for this set.

pIC50: −log10 of the molar value.
Entries below carry reported pIC50 on UniProtKB P80457.
Sequence (P80457 2-1332 limits assumed): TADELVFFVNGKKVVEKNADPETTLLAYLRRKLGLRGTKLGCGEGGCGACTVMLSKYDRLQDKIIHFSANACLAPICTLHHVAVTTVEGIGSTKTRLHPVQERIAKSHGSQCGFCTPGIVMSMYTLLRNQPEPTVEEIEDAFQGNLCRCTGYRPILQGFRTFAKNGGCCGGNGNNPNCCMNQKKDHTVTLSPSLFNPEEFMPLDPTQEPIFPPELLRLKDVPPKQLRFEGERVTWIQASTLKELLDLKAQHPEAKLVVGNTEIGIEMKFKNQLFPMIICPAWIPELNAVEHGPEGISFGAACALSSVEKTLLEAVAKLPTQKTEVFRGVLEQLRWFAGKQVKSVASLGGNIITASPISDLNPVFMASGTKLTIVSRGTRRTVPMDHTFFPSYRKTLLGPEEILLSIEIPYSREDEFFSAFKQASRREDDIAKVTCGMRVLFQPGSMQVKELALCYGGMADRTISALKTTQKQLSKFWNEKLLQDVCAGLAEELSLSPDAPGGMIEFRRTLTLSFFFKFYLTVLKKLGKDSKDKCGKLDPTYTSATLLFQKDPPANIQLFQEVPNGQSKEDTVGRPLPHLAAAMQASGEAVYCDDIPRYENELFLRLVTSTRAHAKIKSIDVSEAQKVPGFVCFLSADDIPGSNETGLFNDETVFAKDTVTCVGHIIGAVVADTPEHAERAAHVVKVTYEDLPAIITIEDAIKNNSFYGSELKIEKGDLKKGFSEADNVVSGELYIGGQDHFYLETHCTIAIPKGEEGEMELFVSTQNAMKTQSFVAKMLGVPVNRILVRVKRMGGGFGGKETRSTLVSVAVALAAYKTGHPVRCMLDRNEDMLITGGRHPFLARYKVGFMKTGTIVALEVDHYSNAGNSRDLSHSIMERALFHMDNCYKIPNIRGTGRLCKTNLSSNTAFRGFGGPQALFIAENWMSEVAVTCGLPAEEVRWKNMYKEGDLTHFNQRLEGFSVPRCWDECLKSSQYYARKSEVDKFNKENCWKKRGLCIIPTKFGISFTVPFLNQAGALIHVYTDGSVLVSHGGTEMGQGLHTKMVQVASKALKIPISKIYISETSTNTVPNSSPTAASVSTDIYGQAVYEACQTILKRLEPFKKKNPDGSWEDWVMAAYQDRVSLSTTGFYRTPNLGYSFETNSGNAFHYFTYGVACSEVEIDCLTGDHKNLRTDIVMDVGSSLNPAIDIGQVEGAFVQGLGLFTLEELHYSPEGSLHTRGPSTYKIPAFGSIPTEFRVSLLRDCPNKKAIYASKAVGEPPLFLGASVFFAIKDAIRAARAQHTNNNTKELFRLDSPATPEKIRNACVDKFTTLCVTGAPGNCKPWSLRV
ASSAY_ENDPOINT: pIC50

Before answering, review these 3 worked examples.
COMPOUND	MEASURED_TARGET	ASSAY_ENDPOINT	READING
N#Cc1cn(CC2CC2)c2ccc(-n3ncc(C(=O)O)n3)cc12	UniProtKB P80457	pIC50	8.76
CC(C)n1cc(C#N)c2cc(-n3ncc(C(=O)O)n3)ccc21	UniProtKB P80457	pIC50	8.74
N#Cc1cn(C2CCC2)c2ccc(-n3ncc(C(=O)O)n3)cc12	UniProtKB P80457	pIC50	8.77

[a] N#Cc1cn(C2CCOC2)c2ccc(-n3ncc(C(=O)O)n3)cc12 (stereo not drawn)
[b] CC(C)Cn1nc(C#N)c2cc(-n3cc(C(=O)O)cn3)ccc21
[c] CC(C)n1nc(C#N)c2cc(-n3cc(C(=O)O)cn3)ccc21
Inquiry: Reorder: pIC50, max to min. As an answer, provide the labels arranged in the order called for.
Reply text: c, b, a
(c: 8.49, b: 8.29, a: 8.02)

---

Uric acid 1 h: recorded values
Tested on: rats with hyperuricemia induced by potassium oxonate
Assay: Treatment of hyperuricemia in rats induced by potassium oxonate, serum uric acid
Format: in vivo, SD rat
Details: 3-day administration, 2 mg/kg gavage, 1 h after potassium oxonate
Please give a number only; it is taken to be in µmol/L.

Before answering, review these 4 worked examples.
MOLECULE	U	READING
CC(C)n1nc(C#N)c2cc(-n3cc(C(=O)O)cn3)ccc21 [Compound 38]	µmol/L	54.4
CC(C)n1cc(C#N)c2cc(-n3ncc(C(=O)O)n3)ccc21 [Compound 15]	µmol/L	88.2
CC(C)n1nc(C#N)c2cc(-c3cc(C(=O)O)ccn3)ccc21 [Compound 57]	µmol/L	63.6
Cc1nc(-c2ccc(OCC(C)C)c(C#N)c2)sc1C(=O)O [Febuxostat, reference compound]	µmol/L	47.5

Inquiry: Indicate its recorded Uric acid 1 h; the molecule in question is CC(C)n1nc(C#N)c2cc(-n3ncc(C(=O)O)n3)ccc21 [Compound 24]
Reply text: 97.2

---

System: rats with hyperuricemia induced by potassium oxonate
Assay: Treatment of hyperuricemia in rats induced by potassium oxonate, serum uric acid
Assay type: in vivo, SD rat
Details: 1-day administration, 1 mg/kg gavage, before potassium oxonate injection
Uric acid 0 h: recorded values
Please give a number only; it is taken to be in µmol/L.

Inquiry: Indicate its recorded Uric acid 0 h; the compound in question is `CC(C)n1cc(C#N)c2cc(-n3ncc(C(=O)O)n3)ccc21`
Reply text: 72.0

Inquiry: Indicate its recorded Uric acid 0 h; the compound in question is `CC(C)n1nc(C#N)c2cc(-c3cc(C(=O)O)ccn3)ccc21`
Reply text: 71.2

Inquiry: Indicate its recorded Uric acid 0 h; the compound in question is Cc1nc(-c2ccc(OCC(C)C)c(C#N)c2)sc1C(=O)O [Febuxostat, reference compound]
Reply text: 81.3

Inquiry: Indicate its recorded Uric acid 0 h; the compound in question is `CC(C)n1nc(C#N)c2cc(-n3ncc(C(=O)O)n3)ccc21`
Reply text: 65.3

Inquiry: Indicate its recorded Uric acid 0 h; the compound in question is `CC(C)n1nc(C#N)c2cc(-n3cc(C(=O)O)cn3)ccc21`
Reply text: 75.6
